Tested on: apyrase
Assay: Screen for apyrase inhibitors (Method 1, in vitro phosphate-release absorbance assay)
Type: biochemical
Settings: inhibitor conc at 1 mM stock, 1 hr room temperature, absorbance 630 nm; rounded average of two assay results
Description: Apyrase inhibitors useful as enhancers of pesticidal activity are assessed using an in vitro assay. […]
property: % Inhibition of Apyrase (%)

compound-structure-string	% Inhibition of Apyrase (%)
O=C(Nc1ccc(S(=O)(=O)Nc2cccc(C(F)(F)F)c2)cc1)c1ccc(F)cc1Cl	59
O=C(Nc1cc(Cl)ccc1NS(=O)(=O)c1ccccc1F)c1ccc(NC(=O)C2CC2)cc1	54
O=C(Nc1ccc(SC(F)F)cc1)c1ccc(NS(=O)(=O)c2cccc([N+](=O)[O-])c2)cc1	64
CN(c1ccccc1)S(=O)(=O)c1cccc(NC(=O)c2ccc(Br)s2)c1	62
Cc1ccc(C)c(S(=O)(=O)Nc2cccc(C(=O)Nc3ccc(F)cn3)c2)c1	55
CN(c1ccccc1)S(=O)(=O)c1ccc(C(=O)N2CCc3ccccc32)cc1	59
O=C(Nc1ccc(F)cc1)c1ccc(Cl)c(S(=O)(=O)N2CCc3ccccc32)c1	56
COc1cccc(S(=O)(=O)Nc2ccc(C(=O)Nc3ccc4c(c3)OCCO4)cc2)c1	62
CCOc1ccc(NC(=O)c2cccc(S(=O)(=O)Nc3ccc(OCC)cc3)c2)cc1	54

* * *

System: apyrase
Test: Screen for apyrase inhibitors (Method 1, in vitro phosphate-release absorbance assay)
Type: biochemical
Conditions: inhibitor conc at 1 mM stock, 1 hr room temperature, absorbance 630 nm; rounded average of two assay results
Procedure: Apyrase inhibitors useful as enhancers of pesticidal activity are assessed using an in vitro assay. […]
property: % Inhibition of Apyrase (%)

The cases that follow already have their % Inhibition of Apyrase on record.
compound	unit-text	% Inhibition of Apyrase
O=C(Nc1cccc(S(=O)(=O)Nc2ccc(Br)cc2)c1)c1ccc(Cl)nc1 [I-221]	%	67
O=C(Nc1cccc(S(=O)(=O)Nc2cccc(Cl)c2)c1)c1ccc(Br)s1	%	56
O=C(Nc1cc(F)ccc1F)c1cccc(S(=O)(=O)N2CCc3ccccc32)c1	%	58
CC1Cc2ccccc2N1S(=O)(=O)c1cccc(C(=O)Nc2ccc3c(c2)OCCCO3)c1 (stereo not drawn)	%	47
O=C(Nc1cccc2ncccc12)c1cccc(S(=O)(=O)N2CCc3ccccc32)c1	%	35
CCOc1ccc(NC(=O)c2cc(S(=O)(=O)N3CCc4ccccc43)ccc2OC)cc1	%	47

P: COc1ccc(NS(=O)(=O)c2cccc(C(=O)Nc3ccc(C#N)cc3)c2)cc1
Q: O=C(Nc1cccc(NS(=O)(=O)c2ccc(Cl)cc2)c1)c1cc(F)ccc1F
R: Cc1ccccc1NC(=O)c1cc(S(=O)(=O)Nc2ccc(Br)cc2)ccc1Cl
Query block: Order the records so the highest % Inhibition of Apyrase appears first and the lowest last. Write the labels out in the order the request specifies.
Result block: Q, P, R

* * *

Test system: apyrase
Test: Screen for apyrase inhibitors (Method 1, in vitro phosphate-release absorbance assay)
Assay type: biochemical
Settings: inhibitor conc at 1 mM stock, 1 hr room temperature, absorbance 630 nm; rounded average of two assay results
property: % Inhibition of Apyrase (%)

molecule	% Inhibition of Apyrase [%]
COc1ccc(NC(=O)c2cccc(S(=O)(=O)N3CC(C)CC(C)C3)c2)c(S(=O)(=O)Nc2ccccc2Cl)c1 (stereo not shown)	54
O=C(Nc1cccc(S(=O)(=O)Nc2ccc(SC(F)F)cc2)c1)c1ccsc1	56
COc1ccccc1C(=O)Nc1ccc(S(=O)(=O)Nc2cccc(Cl)c2)cc1	46
Cn1cc(O)nc1NC(=O)c1cccc(S(=O)(=O)Nc2ccc(Br)cc2)c1 [I-12]	59

* * *

Tested on: apyrase
Assay: Screen for apyrase inhibitors (Method 1, in vitro phosphate-release absorbance assay)
Type: biochemical
Details: inhibitor conc at 1 mM stock, 1 hr room temperature, absorbance 630 nm; rounded average of two assay results
property: % Inhibition of Apyrase (%)

compound-structure-string	% Inhibition of Apyrase / %
O=C(Nc1ccccc1NS(=O)(=O)c1cccs1)c1ccc(Cl)cc1F	35
O=C(c1ccc(NS(=O)(=O)c2ccc3c(c2)OCCO3)cc1)N1CCCc2ccccc21	59

1: Cc1ccc([N+](=O)[O-])cc1NC(=O)c1ccc(Cl)c(S(=O)(=O)Nc2cccc(C)c2C)c1
2: O=C(Nc1ccccc1)c1ccc(Cl)c(S(=O)(=O)Nc2ccc(Br)cc2)c1
3: Cc1cccc(NS(=O)(=O)c2cccc(C(=O)Nc3ccc(Br)c(C)c3)c2)c1
Query block: Please put the entries in order of rising % Inhibition of Apyrase. Write the labels out in the order the request specifies.
Result block: 2, 1, 3

* * *

System: apyrase
Assay: Screen for apyrase inhibitors (Method 1, in vitro phosphate-release absorbance assay)
Format: biochemical
Conditions: inhibitor conc at 1 mM stock, 1 hr room temperature, absorbance 630 nm; rounded average of two assay results
Experimental: Apyrase inhibitors useful as enhancers of pesticidal activity are assessed using an in vitro assay. […]
property: % Inhibition of Apyrase (%)

compound	% Inhibition of Apyrase, %
CC1Cc2ccccc2N1C(=O)c1ccc(NS(=O)(=O)c2ccccc2)cc1 (centres unmarked) [I-911]	59

P: Cc1ccccc1NC(=O)c1cccc(S(=O)(=O)N2c3ccccc3CC2C)c1 (centres unmarked) [I-466]
Q: COc1ccc(NS(=O)(=O)c2cc(OC)ccc2NC(=O)c2c(OC)cccc2OC)cc1 [I-827]
R: CC(=O)c1ccccc1NC(=O)c1cccc(S(=O)(=O)N2c3ccccc3CC2C)c1 (centres unmarked) [I-610]
Query block: Please put the entries in order of rising % Inhibition of Apyrase. Write the labels out in the order the request specifies.
Result block: R, Q, P

* * *

System: apyrase
Experiment: Screen for apyrase inhibitors (Method 1, in vitro phosphate-release absorbance assay)
Assay type: biochemical
Details: inhibitor conc at 1 mM stock, 1 hr room temperature, absorbance 630 nm; rounded average of two assay results
property: % Inhibition of Apyrase (%)

compound	readout-number
COc1cc(NC(=O)c2cccc(S(=O)(=O)Nc3ccc4c(c3)OCO4)c2)cc(OC)c1 [I-257]	61
O=C(Nc1cc(Cl)ccc1N1CCOCC1)c1cccc(S(=O)(=O)N2CCc3ccccc32)c1 [I-549]	53
CN(c1ccc(F)cc1)S(=O)(=O)c1ccc(Cl)c(C(=O)Nc2ccc(F)c(Cl)c2)c1 [I-528]	55
O=C(Nc1ccc2c(c1)OC1(CCCC1)O2)c1cccc(S(=O)(=O)Nc2ccc3c(c2)OCO3)c1 [I-531]	55
O=C(Nc1ccc(Br)cc1)c1cccc(S(=O)(=O)Nc2ccc(F)cc2)c1 [I-222]	71
COc1ccc(N(C)S(=O)(=O)c2cccc(C(=O)Nc3ccc4c(c3)OCO4)c2)cc1 [I-479]	58

a: O=C(Nc1ccc(OC(F)F)cc1)c1ccccc1S(=O)(=O)Nc1cccc(C(F)(F)F)c1 [I-1]
b: CC(=O)c1cccc(NS(=O)(=O)c2cc(C(=O)Nc3cccc([N+](=O)[O-])c3)ccc2C)c1 [I-29]
Query block: Hi team, can someone confirm which has the larger % Inhibition of Apyrase: a or b ? Thanks. Identify your selection by its label.
Result block: a
(a: 84%, b: 22%)

* * *

System: apyrase
Assay: Screen for apyrase inhibitors (Method 1, in vitro phosphate-release absorbance assay)
Assay type: biochemical
Details: inhibitor conc at 1 mM stock, 1 hr room temperature, absorbance 630 nm; rounded average of two assay results
property: % Inhibition of Apyrase (%)

The cases that follow already have their % Inhibition of Apyrase on record.
compound	system-name	property	readout-number
Cc1ccnn1-c1ccc(C(=O)Nc2ccc(NS(=O)(=O)c3ccc4c(c3)OCCO4)cc2)cc1 [I-1003]	apyrase	% Inhibition of Apyrase	47
CCc1ccccc1NC(=O)c1cccc(S(=O)(=O)N2CCc3ccccc32)c1 [I-566]	apyrase	% Inhibition of Apyrase	51

A: O=C(Nc1cccc(S(=O)(=O)Nc2cccc(C(F)(F)F)c2)c1)c1ccoc1 [I-762]
B: COc1ccc(NS(=O)(=O)c2cccc(NC(=O)c3[nH]c(C)c(C(C)=O)c3C)c2)cc1 [I-727]
Query block: Hi team, can someone confirm which has the larger % Inhibition of Apyrase: A or B ? Thanks. Identify your selection by its label.
Result block: B

* * *

Tested on: apyrase
Assay: Screen for apyrase inhibitors (Method 1, in vitro phosphate-release absorbance assay)
Type: biochemical
Conditions: inhibitor conc at 1 mM stock, 1 hr room temperature, absorbance 630 nm; rounded average of two assay results
Protocol: Apyrase inhibitors useful as enhancers of pesticidal activity are assessed using an in vitro assay. […]
property: % Inhibition of Apyrase (%)

compound	% Inhibition of Apyrase [%]
COc1ccc(NC(=O)c2cccc(S(=O)(=O)Nc3cccc(Cl)c3)c2)cn1 [I-612]	4
Cc1c(NC(=O)c2ccc(Cl)c(S(=O)(=O)Nc3ccccc3)c2)cccc1[N+](=O)[O-] [I-39]	14
CN(c1ccccc1)S(=O)(=O)c1cccc(NC(=O)c2ccsc2)c1 [I-716]	58
O=C(Nc1cccc([N+](=O)[O-])c1)c1cc(S(=O)(=O)Nc2cccc(F)c2)ccc1Cl [I-11]	60
COc1ccc(S(=O)(=O)N2CCCCC2)cc1NC(=O)c1cccc(S(=O)(=O)Nc2ccccc2OC)c1 [I-578]	48
COc1ccccc1NS(=O)(=O)c1cccc(NC(=O)c2c[nH]c3ccccc23)c1 [I-707]	62
COc1ccccc1NS(=O)(=O)c1cccc(NC(=O)c2cccnc2OC)c1 [I-770]	6
Cc1ccc(NC(=O)c2cccc(NS(=O)(=O)c3ccc(Br)cc3)c2)nc1 [I-646]	54
O=C(Nc1cccc([N+](=O)[O-])c1)c1cc(S(=O)(=O)Nc2ccc(F)cc2)ccc1Cl [I-52]	10
O=C(Nc1ccc(Br)cc1)c1ccc(NS(=O)(=O)c2ccc(F)c(F)c2)cc1 [I-948]	43

P: Cc1ccccc1NS(=O)(=O)c1ccc(C(=O)N2c3ccccc3CC2C)cc1 (centres unmarked) [I-879]
Q: CC(=O)NS(=O)(=O)c1ccc(NC(=O)c2cccc(S(=O)(=O)N3CCc4ccccc43)c2)cc1 [I-608]
R: O=C(Nc1ccccc1)c1ccccc1NS(=O)(=O)c1cccc(C(F)(F)F)c1 [I-377]
S: CN(c1ccccc1)S(=O)(=O)c1cccc(NC(=O)c2ccncc2)c1 [I-768]
T: COc1ccc(Cl)cc1NS(=O)(=O)c1cccc(C(=O)Nc2ccc(N(C)C)nc2)c1 [I-599]
Query block: Order the records so the highest % Inhibition of Apyrase appears first and the lowest last. Write the labels out in the order the request specifies.
Result block: P, T, R, Q, S
(P: 53%, T: 30%, R: 20%, Q: 14%, S: 7%)

Reference source: patent US12685312B2
